Biological target: Intercellular adhesion molecule (ICAM-1), Integrin alpha-L/beta-2 (Homo sapiens, UniProt P05107+P05362+P20701)
Sequence (P20701 whole entry): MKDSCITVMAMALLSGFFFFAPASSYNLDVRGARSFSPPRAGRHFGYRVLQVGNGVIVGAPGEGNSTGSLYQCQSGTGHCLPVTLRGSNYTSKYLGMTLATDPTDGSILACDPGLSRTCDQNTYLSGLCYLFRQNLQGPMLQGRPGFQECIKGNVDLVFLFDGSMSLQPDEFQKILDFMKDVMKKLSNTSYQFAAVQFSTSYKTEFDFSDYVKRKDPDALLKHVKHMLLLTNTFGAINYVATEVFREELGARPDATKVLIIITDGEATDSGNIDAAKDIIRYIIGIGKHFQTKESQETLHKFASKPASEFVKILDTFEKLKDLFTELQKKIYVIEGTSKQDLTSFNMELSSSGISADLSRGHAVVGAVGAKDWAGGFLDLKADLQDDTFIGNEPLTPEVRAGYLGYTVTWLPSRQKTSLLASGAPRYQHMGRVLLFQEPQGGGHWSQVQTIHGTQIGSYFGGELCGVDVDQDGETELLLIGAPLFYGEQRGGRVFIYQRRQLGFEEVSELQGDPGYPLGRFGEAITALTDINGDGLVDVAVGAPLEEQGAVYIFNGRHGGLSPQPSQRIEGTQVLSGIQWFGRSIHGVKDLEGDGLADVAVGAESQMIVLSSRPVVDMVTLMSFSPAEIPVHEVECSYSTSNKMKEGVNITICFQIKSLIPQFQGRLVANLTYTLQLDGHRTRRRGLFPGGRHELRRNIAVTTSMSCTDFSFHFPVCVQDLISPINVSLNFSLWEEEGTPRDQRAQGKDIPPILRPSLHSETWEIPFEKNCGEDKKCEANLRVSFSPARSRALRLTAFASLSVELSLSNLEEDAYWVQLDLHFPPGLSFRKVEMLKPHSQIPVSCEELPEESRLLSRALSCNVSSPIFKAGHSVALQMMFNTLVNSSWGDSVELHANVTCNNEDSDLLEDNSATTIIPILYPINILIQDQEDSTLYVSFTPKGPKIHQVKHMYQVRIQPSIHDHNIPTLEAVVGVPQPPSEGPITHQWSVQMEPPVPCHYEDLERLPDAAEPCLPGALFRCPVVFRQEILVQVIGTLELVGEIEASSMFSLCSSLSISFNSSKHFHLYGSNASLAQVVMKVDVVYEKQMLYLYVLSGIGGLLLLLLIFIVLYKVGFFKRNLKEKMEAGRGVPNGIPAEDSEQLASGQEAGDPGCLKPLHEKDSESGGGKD
Sequence (P05362 whole entry): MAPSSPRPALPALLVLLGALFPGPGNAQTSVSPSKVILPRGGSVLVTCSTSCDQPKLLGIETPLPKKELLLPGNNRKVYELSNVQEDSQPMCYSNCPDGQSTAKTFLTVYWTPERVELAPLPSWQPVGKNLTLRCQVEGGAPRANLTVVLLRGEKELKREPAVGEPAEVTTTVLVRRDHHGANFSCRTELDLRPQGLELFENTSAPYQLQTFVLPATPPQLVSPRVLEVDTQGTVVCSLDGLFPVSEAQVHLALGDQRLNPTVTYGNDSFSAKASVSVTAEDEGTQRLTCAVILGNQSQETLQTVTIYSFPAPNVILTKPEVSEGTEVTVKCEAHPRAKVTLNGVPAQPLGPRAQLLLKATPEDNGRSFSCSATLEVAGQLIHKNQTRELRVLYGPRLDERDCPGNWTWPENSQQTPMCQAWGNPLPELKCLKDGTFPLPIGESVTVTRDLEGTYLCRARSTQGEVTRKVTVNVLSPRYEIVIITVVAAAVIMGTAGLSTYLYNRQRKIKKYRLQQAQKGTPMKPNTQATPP
Sequence (P05107 whole entry): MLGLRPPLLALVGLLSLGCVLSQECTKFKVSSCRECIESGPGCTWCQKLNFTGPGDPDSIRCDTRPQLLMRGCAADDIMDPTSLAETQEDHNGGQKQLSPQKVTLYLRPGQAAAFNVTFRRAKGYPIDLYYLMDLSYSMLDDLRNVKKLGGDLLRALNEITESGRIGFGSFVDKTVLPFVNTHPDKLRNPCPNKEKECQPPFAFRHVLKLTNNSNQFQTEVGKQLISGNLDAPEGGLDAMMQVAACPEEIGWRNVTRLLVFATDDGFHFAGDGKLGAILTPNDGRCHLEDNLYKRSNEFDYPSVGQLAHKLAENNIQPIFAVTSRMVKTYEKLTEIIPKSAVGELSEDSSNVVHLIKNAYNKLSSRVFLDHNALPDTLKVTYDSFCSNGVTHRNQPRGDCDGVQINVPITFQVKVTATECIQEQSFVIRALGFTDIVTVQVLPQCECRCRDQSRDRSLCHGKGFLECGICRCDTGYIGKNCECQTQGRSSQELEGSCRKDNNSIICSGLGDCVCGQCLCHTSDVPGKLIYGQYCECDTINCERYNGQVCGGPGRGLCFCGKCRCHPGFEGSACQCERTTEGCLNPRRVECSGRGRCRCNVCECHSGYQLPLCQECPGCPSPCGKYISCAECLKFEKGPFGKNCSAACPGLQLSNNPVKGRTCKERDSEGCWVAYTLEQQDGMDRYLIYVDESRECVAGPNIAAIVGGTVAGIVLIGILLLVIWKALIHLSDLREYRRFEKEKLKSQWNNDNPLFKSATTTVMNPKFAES
Assay: Inhibition of LFA1/ICAM1 interaction in human Hut-78 cells in presence of 10% human serum
Type: cell-based
MEASURED PARAMETER: IC50

Inquiry: Find the recorded IC50 belonging to "CC(C)n1cc(C[C@H](NC(=O)c2c(Cl)cc3c(c2Cl)CCN(C(=O)c2cc4ccccc4o2)C3)C(=O)O)nn1" and report it.
Reply text: 190 nM

Inquiry: Same again, this time with "CC(C)n1cc(C[C@H](NC(=O)c2c(Cl)cc3c(c2Cl)CCN(C(=O)c2cc4ccccn4n2)C3)C(=O)O)nn1"
Reply text: 260 nM

Inquiry: Same again, this time with "CC(C)n1cc(C[C@H](NC(=O)c2c(Cl)cc3c(c2Cl)CCN(C(=O)c2ccc4ccoc4c2)C3)C(=O)O)nn1"
Reply text: 950 nM

Inquiry: Same again, this time with "CS(=O)(=O)c1ccc(C[C@H](NC(=O)c2c(Cl)cc3c(c2Cl)CCN(C(=O)c2ccc4ccoc4c2)C3)C(=O)O)o1"
Reply text: 96 nM

Inquiry: Same again, this time with "CCOC(=O)[C@H](CNC(=O)c1cccs1)NC(=O)c1c(Cl)cc2c(c1Cl)CCN(C(=O)c1ccc3ccoc3c1)C2"
Reply text: 950 nM

Inquiry: Same again, this time with "CS(=O)(=O)n1cc(C[C@H](NC(=O)c2c(Cl)cc3c(c2Cl)CCN(C(=O)c2ccc(Cl)cc2)C3)C(=O)O)c2ccccc21"
Reply text: 25000 nM

====

Target: Intercellular adhesion molecule (ICAM-1), Integrin alpha-L/beta-2 (Homo sapiens, UniProt P05107+P05362+P20701)
Experiment: Inhibition of LFA1/ICAM1 interaction in human Hut-78 cells
Format: cell-based
MEASURED PARAMETER: log10 of IC50 (log10 of the value in nM)
Hello, just confirming the data are log10 of IC50 with units of nM.

Inquiry: Find the recorded log10 of IC50 belonging to "CC(C)n1cnc(C[C@H](NC(=O)c2c(Cl)cc3c(c2Cl)CCN(C(=O)c2ccc(Cl)cc2)C3)C(=O)O)c1" and report it.
Reply text: 2.23

Inquiry: Same again, this time with "CC(C)n1cc(C[C@H](NC(=O)c2c(Cl)cc3c(c2Cl)CCN(C(=O)c2ccc(Cl)cc2)C3)C(=O)O)nn1"
Reply text: 1.77

Inquiry: Same again, this time with "Cn1cnc(C[C@H](NC(=O)c2c(Cl)cc3c(c2Cl)CCN(C(=O)c2ccc(Cl)cc2)C3)C(=O)O)c1"
Reply text: 2.75

Inquiry: Same again, this time with "CS(=O)(=O)c1ncc(C[C@H](NC(=O)c2c(Cl)cc3c(c2Cl)CCN(C(=O)c2ccc4ccoc4c2)C3)C(=O)O)[nH]1"
Reply text: 1.48

Inquiry: Same again, this time with "Cc1ccc2c(c1)c(C[C@H](NC(=O)c1c(Cl)cc3c(c1Cl)CCN(C(=O)c1ccc(Cl)cc1)C3)C(=O)O)cn2S(C)(=O)=O"
Reply text: 1.41

Inquiry: Same again, this time with "CS(=O)(=O)c1ccc(C[C@H](NC(=O)c2c(Cl)cc3c(c2Cl)CCN(C(=O)c2ccc4ccoc4c2)C3)C(=O)O)o1"
Reply text: 0.08

====

Assay: AUC in Sprague-Dawley rat at 5 mg/kg administered as single dose
Type: ADME, organism-based
Parameters: dose 5 mg/kg
Settings: plasma
MEASURED PARAMETER: AUC (ng·h/mL)
Give the value in ng·h/mL but do not write ng·h/mL after it.

Inquiry: Find the recorded AUC belonging to "CC(C)n1cc(C[C@H](NC(=O)c2c(Cl)cc3c(c2Cl)CCN(C(=O)c2ccc(Cl)cc2)C3)C(=O)O)nn1" and report it.
Reply text: 1410

Inquiry: Same again, this time with "CC(C)n1cc(C[C@H](NC(=O)c2c(Cl)cc3c(c2Cl)CCN(C(=O)c2ccc4ccoc4c2)C3)C(=O)O)nn1"
Reply text: 3680

Inquiry: Same again, this time with "CS(=O)(=O)c1ccc(C[C@H](NC(=O)c2c(Cl)cc3c(c2Cl)CCN(C(=O)c2ccc4ccoc4c2)C3)C(=O)O)o1"
Reply text: 1510

====

Molecular target: Intercellular adhesion molecule (ICAM-1), Integrin alpha-L/beta-2 (Homo sapiens, UniProt P05107+P05362+P20701)
Assay: Inhibition of LFA1/ICAM1 interaction in human Hut-78 cells in presence of 10% human serum
Format: cell-based
So I've got a bunch of compounds here, and I need their pIC50 values.
pIC50 here: minus log base 10 of the concentration, concentration in moles per litre.

Inquiry: Find the recorded pIC50 belonging to "O=C(NC[C@H](NC(=O)c1c(Cl)cc2c(c1Cl)CCN(C(=O)c1ccc(Cl)cc1)C2)C(=O)O)c1cccs1" and report it.
Reply text: 5.82

Inquiry: Same again, this time with "CS(=O)(=O)c1ncc(C[C@H](NC(=O)c2c(Cl)cc3c(c2Cl)CCN(C(=O)c2ccc4ccoc4c2)C3)C(=O)O)[nH]1"
Reply text: 6.25

Inquiry: Same again, this time with "Cc1cccc2c(C[C@H](NC(=O)c3c(Cl)cc4c(c3Cl)CCN(C(=O)c3ccc(Cl)cc3)C4)C(=O)O)cn(S(C)(=O)=O)c12"
Reply text: 4.60

Inquiry: Same again, this time with "O=C(NC[C@H](NC(=O)c1c(Cl)cc2c(c1Cl)CCN(C(=O)c1ccc3ccoc3c1)C2)C(=O)O)c1cccs1"
Reply text: 6.02

Inquiry: Same again, this time with "Cc1ccc2c(c1)c(C[C@H](NC(=O)c1c(Cl)cc3c(c1Cl)CCN(C(=O)c1ccc(Cl)cc1)C3)C(=O)O)cn2S(C)(=O)=O"
Reply text: 4.96

Inquiry: Same again, this time with "Cc1ccc2c(C[C@H](NC(=O)c3c(Cl)cc4c(c3Cl)CCN(C(=O)c3ccc(Cl)cc3)C4)C(=O)O)cn(S(C)(=O)=O)c2c1"
Reply text: 4.60

Inquiry: Same again, this time with "CC(C)n1cc(C[C@H](NC(=O)c2c(Cl)cc3c(c2Cl)CCN(C(=O)c2ccc(Cl)cc2)C3)C(=O)O)nn1"
Reply text: 6.00

====

So I've got a bunch of compounds here, and I need their half-life values.
Assay: Half life in Sprague-Dawley rat at 5 mg/kg administered as single dose
Type: ADME, organism-based
Design: dose 5 mg/kg
Settings: in vivo
Give the value in min but do not write min after it.

Inquiry: Find the recorded half-life belonging to "CC(C)n1cc(C[C@H](NC(=O)c2c(Cl)cc3c(c2Cl)CCN(C(=O)c2ccc(Cl)cc2)C3)C(=O)O)nn1" and report it.
Reply text: 138

Inquiry: Same again, this time with "CC(C)n1cc(C[C@H](NC(=O)c2c(Cl)cc3c(c2Cl)CCN(C(=O)c2ccc4ccoc4c2)C3)C(=O)O)nn1"
Reply text: 58.2

Inquiry: Same again, this time with "CS(=O)(=O)c1ccc(C[C@H](NC(=O)c2c(Cl)cc3c(c2Cl)CCN(C(=O)c2ccc4ccoc4c2)C3)C(=O)O)o1"
Reply text: 25.8

====

Biological target: Intercellular adhesion molecule (ICAM-1), Integrin alpha-L/beta-2 (Homo sapiens, UniProt P05107+P05362+P20701)
Assay: Inhibition of LFA1/ICAM1 interaction in human Hut-78 cells
Format: cell-based
MEASURED PARAMETER: pIC50
pIC50 here: minus log base 10 of the concentration, concentration in moles per litre.

Inquiry: Find the recorded pIC50 belonging to "Cc1ccc2c(C[C@H](NC(=O)c3c(Cl)cc4c(c3Cl)CCN(C(=O)c3ccc(Cl)cc3)C4)C(=O)O)cn(S(C)(=O)=O)c2c1" and report it.
Reply text: 7.41

Inquiry: Same again, this time with "O=C(NC[C@H](NC(=O)c1c(Cl)cc2c(c1Cl)CCN(C(=O)c1ccc3ccoc3c1)C2)C(=O)O)c1cccs1"
Reply text: 8.30

Inquiry: Same again, this time with "CS(=O)(=O)n1cc(C[C@H](NC(=O)c2c(Cl)cc3c(c2Cl)CCN(C(=O)c2ccc(Cl)cc2)C3)C(=O)O)c2ccccc21"
Reply text: 7.00

Inquiry: Same again, this time with "O=C(N[C@@H](Cc1c[nH]cn1)C(=O)O)c1c(Cl)cc2c(c1Cl)CCN(C(=O)c1ccc(Cl)cc1)C2"
Reply text: 6.37

Inquiry: Same again, this time with "CC(C)n1cc(C[C@H](NC(=O)c2c(Cl)cc3c(c2Cl)CCN(C(=O)c2cc4ccccn4n2)C3)C(=O)O)nn1"
Reply text: 8.15

Inquiry: Same again, this time with CS(=O)(=O)N1CCC(C[C@H](NC(=O)c2c(Cl)cc3c(c2Cl)CCN(C(=O)c2ccc4ccoc4c2)C3)C(=O)O)C1 (stereo partly specified)
Reply text: 6.00

Inquiry: Same again, this time with "CC(C)c1cn(C[C@H](NC(=O)c2c(Cl)cc3c(c2Cl)CCN(C(=O)c2ccc(Cl)cc2)C3)C(=O)O)nn1"
Reply text: 6.51

Inquiry: Same again, this time with "CC(C)c1cc(C[C@H](NC(=O)c2c(Cl)cc3c(c2Cl)CCN(C(=O)c2ccc(Cl)cc2)C3)C(=O)O)[nH]n1"
Reply text: 6.60

Inquiry: Same again, this time with "CC(=O)n1cc(C[C@H](NC(=O)c2c(Cl)cc3c(c2Cl)CCN(C(=O)c2ccc(Cl)cc2)C3)C(=O)O)c2ccccc21"
Reply text: 6.09

Inquiry: Same again, this time with "CC(C)n1cc(C[C@H](NC(=O)c2c(Cl)cc3c(c2Cl)CCN(C(=O)c2cc4ccccc4o2)C3)C(=O)O)nn1"
Reply text: 8.30

Inquiry: Same again, this time with "Cc1cccc2c(C[C@H](NC(=O)c3c(Cl)cc4c(c3Cl)CCN(C(=O)c3ccc(Cl)cc3)C4)C(=O)O)cn(S(C)(=O)=O)c12"
Reply text: 6.85

Inquiry: Same again, this time with "CS(=O)(=O)c1ccc(C[C@H](NC(=O)c2c(Cl)cc3c(c2Cl)CCN(C(=O)c2ccc4ccoc4c2)C3)C(=O)O)s1"
Reply text: 6.82

Inquiry: Same again, this time with "CC(C)n1cc(C[C@H](NC(=O)c2c(Cl)cc3c(c2Cl)CCN(C(=O)c2ccc4ccoc4c2)C3)C(=O)O)nn1"
Reply text: 7.72

These entries and their values trace back to ChEMBL document CHEMBL1641526.
